Reference source for all entries: ChEMBL document CHEMBL3988442

Target: Sialic acid-binding Ig-like lectin 9 (Homo sapiens) (UniProt Q9Y336)
Sequence (Q9Y336 whole entry): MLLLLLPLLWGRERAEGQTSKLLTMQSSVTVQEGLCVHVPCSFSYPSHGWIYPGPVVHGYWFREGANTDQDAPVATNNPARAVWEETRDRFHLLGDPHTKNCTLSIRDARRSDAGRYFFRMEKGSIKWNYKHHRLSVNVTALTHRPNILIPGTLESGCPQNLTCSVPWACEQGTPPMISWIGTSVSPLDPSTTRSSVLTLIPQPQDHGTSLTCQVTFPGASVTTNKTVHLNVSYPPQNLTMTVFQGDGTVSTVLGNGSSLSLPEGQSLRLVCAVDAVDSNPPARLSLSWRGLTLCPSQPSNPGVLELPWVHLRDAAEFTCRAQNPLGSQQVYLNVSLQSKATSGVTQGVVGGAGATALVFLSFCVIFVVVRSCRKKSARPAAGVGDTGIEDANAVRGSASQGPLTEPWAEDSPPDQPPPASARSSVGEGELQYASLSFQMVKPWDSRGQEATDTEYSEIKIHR
Assay: Hs-Siglec9 ALPHAscreen SOP 20170721
Parameters: scale not given: direction of the effect not stated beside the values
Conditions: 10 µM
Parameter Measured: Percent Effect (%)
Only the number, expressed in %, is required.

# example entries with known answers
> print(dat)
                                   compound  meas.value
1  c1ccc(CN2CC[C@@H]3O[C@H](COCc4ccncc4)CC[C@@H]32)nc1       -5.18
2     Cc1ccc(OCC(=O)NS(=O)(=O)c2cccnc2)cc1C       -2.26

Find the measured Percent Effect of COc1cccc(OCc2cc(C(=O)NC[C@H]3CCCN3)n[nH]2)c1 and report it.
30.2

Find the measured Percent Effect of COCCCn1c(CN2CCCC(O)C2)cnc1S(=O)(=O)C1CCCC1 (centres undefined) and report it.
10.5

Find the measured Percent Effect of CCN(Cc1ccc2c(c1)OCO2)Cc1nc(C)no1 and report it.
-8.65

Find the measured Percent Effect of NC(=O)c1ccc2c(c1)nc1n2CCN(Cc2ccco2)C1 and report it.
1.24

Find the measured Percent Effect of Cc1noc(CN(Cc2ccc3c(c2)OCO3)C2CCCC2)n1 and report it.
6.53

Find the measured Percent Effect of Cc1noc(C)c1CCC(=O)N1CCN(CCn2cccn2)CC1 and report it.
19.6

Find the measured Percent Effect of O=C(c1cnccn1)N1CCOC2(CCN(Cc3ccsc3)CC2)C1 and report it.
7.22

Find the measured Percent Effect of CN1CCN(C2CCN(CCOc3ccc(F)cc3)CC2)C1=O and report it.
-4

Find the measured Percent Effect of NC(=O)c1ccc(OCC(=O)N2CCCC(n3cccn3)C2)cc1 (centres undefined) and report it.
2.82

Find the measured Percent Effect of CO[C@H]1CN(C(=O)c2ccccn2)[C@@H]2CCCO[C@H]12 and report it.
0.754

* * *

Molecular target: Arginase-2, mitochondrial (Homo sapiens)
Assay: in vitro enzyme assay to detect the production of urea directly proportional to the activity of Arginase II; further: in the data most compounds retested in dose-response had high values
Assay type: functional
Design: scale not given: direction of the effect not stated beside the values
Settings: 33.3 µM
Parameter Measured: Percent Effect (%)
Only the number, expressed in %, is required.

# example entries with known answers
> print(dat)
                                   compound                       experimental.system  meas.value
1  Cc1ccc(F)c(OC2(C(=O)O)CCN(C(=O)N3CCCC3)CC2)c1  Arginase-2, mitochondrial (Homo sapiens)        1.32
2  CN(Cc1nnc(C2CC2)n1C)C(=O)c1ccnc(OC2CCC2)c1  Arginase-2, mitochondrial (Homo sapiens)        1.43
3  CN1CCN(C(=O)[C@H]2C[C@@H]3CCN(c4ncc(F)cn4)C[C@@H]3O2)CC1  Arginase-2, mitochondrial (Homo sapiens)       -53.2
4  Cc1nnc(N2C[C@H](C(=O)NCC3CC3)[C@@H]3CCO[C@@H]3C2)s1  Arginase-2, mitochondrial (Homo sapiens)       -3.23
5  CC(NCc1ccccc1Br)c1ccc2[nH]c(=O)[nH]c2c1 (stereo unspecified)  Arginase-2, mitochondrial (Homo sapiens)      -0.401

Find the measured Percent Effect of Cn1nc(C2CCCN(C(=O)Cc3ccsc3)C2)c2nccnc21 (stereo unspecified) and report it.
-1.16
